# test.summary: serotonin-gated TRPC4 signal block – cell-based, second counter screen, HEK293 TRPC4/5HT1a, Fluo-4, counter-screen for TRPC4 inhibitor project, confirmation (AID 434978)
# measurement.parameters: Fluo-4 calcium flux, at 10 µM, serotonin added to trigger calcium flux; hits give high values
The source made the active and inactive calls.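 How the source made its calls: active means primary screen active whose calcium signal fell more than 3 SD beyond the full-serotonin control mean in both duplicate plates; inactive means the rest.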
measurement.kind: inhibition

Past entries and their recorded results:
{"molecule": "CCOC(=O)C(=NC1CCS(=O)(=O)C1)NNc1ccccc1Cl (stereo unspecified)", "endpoint.value": "inactive"}
{"molecule": "CCCCc1nc(N2CCOCC2)c(C#N)c2c1CCCC2", "endpoint.value": "36.5% (active)"}
{"molecule": "CC(=O)c1nn(-c2cccc(Br)c2)cc1C(=O)c1cccc2ccccc12", "endpoint.value": "inactive"}
{"molecule": "Cc1cc(N2CCN(C)CC2)ccc1NC(=O)c1ccc(-c2ccc(Cl)cc2)o1", "endpoint.value": "inactive"}
{"molecule": "NNc1ccc(Cc2ccc(Cl)cc2Cl)nn1", "endpoint.value": "inactive"}
{"molecule": "Cc1c(N2C(=O)/C(=C\\C3CC=CCC3)SC2=S)c(=O)n(-c2ccccc2)n1C (stereo unspecified)", "endpoint.value": "inactive"}
{"molecule": "S=c1[nH]nc(-c2cc3c(s2)-c2ccccc2CC3)o1", "endpoint.value": "32.1% (active)"}
{"molecule": "NC(=O)c1ccc(N2CCN(c3ncc(C(F)(F)F)cc3Cl)CC2)cc1", "endpoint.value": "inactive"}

Entry CCOC(=O)C1(Cc2cccc(F)c2)CCN(Cc2c(C)nn(CC)c2C)CC1 ; inhibition = inactive

The measured inhibition associated with O=[N+]([O-])c1cc([N+](=O)[O-])c2oc(-c3ccccc3)c(Br)c2c1O reads inactive

inhibition reported for this molecule CC[n+]1c(/C=C/Nc2ccccc2)sc2ccccc21 : inactive

# inhibition (molecule: CC(C)c1nc(N2CCOCC2)c(C#N)c2c1CCCC2 ) is inactive

In plain terms, O=C(CN1CCCN(S(=O)(=O)c2ccc(F)cc2)CC1)Nc1ccccc1Br has a documented inhibition of inactive

inhibition measured on N=c1sccn1CC(=O)Nc1ccccc1Oc1ccccc1 = 34.6% (active)

inhibition for Cc1n[nH]c(C)c1CCCCOc1ccccc1 is 31.5% (active)

Record CN1CCN(C(=O)c2cccn(Cc3c(Cl)cccc3Cl)c2=O)CC1 , field inhibition: inactive

###

# Test system: TRPC4 beta (transient receptor potential cation channel C4), mouse
# test.summary: potentiation of DAMGO EC20 TRPC4 response – cell-based, Fluo-4, HEK293 TRPC4beta/mu-opioid, confirmation (AID 2555)
# measurement.parameters: DAMGO EC20, Fluo-4 calcium flux, at 10 µM
Calls of active or inactive are those of the source.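 The calls were made as follows: active = primary screen hit whose calcium fluorescence ratio, in both repeats, exceeds the weak agonist control mean by 3 SD; inactive = the rest.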
The categories you may choose from are active, inactive

Given C#Cc1ccc(CN2CCCC(C(=O)Nc3ccccc3Oc3cccnc3)C2)cc1 (stereo not drawn) , state the outcome it received in this test.
inactive

Call for entry O=[N+]([O-])c1ccccc1CN1CCN(S(=O)(=O)c2ccccc2)CC1 :
active

Lab log entry: COc1ccc(C(CNC(=O)CCOc2ccccc2)N(C)C)cc1 (stereo not drawn) — outcome as called in the assay?
inactive

// return assay outcome for CCN1CCCC(OC(=O)c2cc(-c3ccccc3Cl)nc3ccccc23)C1 (stereo not drawn)
inactive

Query: recorded result category for CCOC(=O)C1CCN(c2nc3ccccc3nc2C(C#N)C(=O)OCCOC)CC1 (stereo not drawn) in this test
inactive

What was the test verdict on CCc1ccc(-c2nn(-c3ccccc3)cc2CSC(=N)N)cc1 ?
inactive

State the result this test recorded for OCCCNc1c2ccccc2nc2ccccc12 .
inactive

How did this test come out for Cc1ccc(Nc2c(N)c(=O)oc3ccccc23)cc1 ?
inactive

###

# test.target: Short transient receptor potential channel 4 (Mus musculus) (UniProt Q9QUQ5)
# Sequence (Q9QUQ5 whole entry, looked up): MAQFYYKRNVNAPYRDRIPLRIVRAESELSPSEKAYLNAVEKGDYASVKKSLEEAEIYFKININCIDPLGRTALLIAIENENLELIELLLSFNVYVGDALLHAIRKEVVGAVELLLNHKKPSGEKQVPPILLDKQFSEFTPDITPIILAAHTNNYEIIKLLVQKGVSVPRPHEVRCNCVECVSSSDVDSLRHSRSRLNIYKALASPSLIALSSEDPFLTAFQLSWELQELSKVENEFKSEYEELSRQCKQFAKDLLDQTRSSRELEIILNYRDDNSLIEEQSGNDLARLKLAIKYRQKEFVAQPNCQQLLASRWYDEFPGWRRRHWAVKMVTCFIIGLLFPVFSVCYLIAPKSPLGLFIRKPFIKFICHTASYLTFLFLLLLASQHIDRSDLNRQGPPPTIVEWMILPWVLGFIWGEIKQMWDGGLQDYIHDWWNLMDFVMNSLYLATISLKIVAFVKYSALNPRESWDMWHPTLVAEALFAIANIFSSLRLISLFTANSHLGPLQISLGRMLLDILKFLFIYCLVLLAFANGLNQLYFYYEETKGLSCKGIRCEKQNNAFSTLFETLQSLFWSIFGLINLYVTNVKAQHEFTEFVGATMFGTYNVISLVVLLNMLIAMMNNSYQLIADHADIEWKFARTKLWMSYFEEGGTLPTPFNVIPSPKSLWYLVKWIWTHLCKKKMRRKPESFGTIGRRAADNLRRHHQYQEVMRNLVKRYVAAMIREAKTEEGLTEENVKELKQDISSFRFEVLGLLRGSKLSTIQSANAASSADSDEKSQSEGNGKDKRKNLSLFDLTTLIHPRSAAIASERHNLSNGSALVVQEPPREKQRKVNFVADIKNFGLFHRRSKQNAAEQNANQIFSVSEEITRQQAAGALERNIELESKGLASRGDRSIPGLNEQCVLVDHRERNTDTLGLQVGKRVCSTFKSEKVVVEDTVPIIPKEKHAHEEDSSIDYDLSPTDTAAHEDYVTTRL
# test.summary: blockers of DAMGO-evoked TRPC4 calcium flux – cell-based, second round, Fluo4, HEK293 TRPC4beta/mu-opioid, 1 µM, confirmation (AID 2637)
# measurement.parameters: at 1 µM
The source made the active and inactive calls.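 How the source made its calls: active means calcium signal ratio cut to more than 3 SD under the fully stimulated control mean yet still positive, in both repeats and the primary screen; inactive means the rest.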
Output constraint: value belongs to 1 (active), -1 (inactive)

The following molecules have reported results that may help.
{"molecule": "COc1ccc2c(C)cc(N3CCCCCC3)nc2c1", "assigned.label": 1}
{"molecule": "NN=C1c2cc([N+](=O)[O-])ccc2-c2ccc([N+](=O)[O-])cc21", "assigned.label": -1}
{"molecule": "COc1ccc(C(CNC(=O)C(Cc2ccccc2)NC(N)=O)N(C)C)cc1 (stereo not given)", "assigned.label": -1}
{"molecule": "Cc1ccc(-n2c(SCc3cc(=O)n4ccsc4n3)nnc2-c2cccnc2)c(C)c1", "assigned.label": -1}

Tell me the assay call for COc1ccc(Nc2nc(NCC3CCCO3)c3ccccc3n2)c(OC)c1 (stereo not given) please.
1

###

# test.target: Inward rectifier potassium channel 2 (Mus musculus)
# test.summary: inhibition of Kir2.1 inward rectifier potassium flux – cell-based, FluxOR thallium flux, duplicate, confirmation (AID 2032)
# measurement.parameters: Kir2.1-expressing cells, FluxOR thallium flux fluorescence, at 10 µM; hits give low values
Some of the results follow. Calls of active or inactive are those of the source.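 Rule for the calls: active = Primary-screen hit whose thallium flux fell at least 3 control SD below untreated wells in both duplicates, with normal baseline fluorescence; inactive = the rest.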
measurement.kind: Tl flux remaining, % of negative control (hits give low values)

{"molecule": "COc1ccccc1-c1n[nH]c2c1[C@H](C)CC[C@H]2C(C)C", "test.target": "Inward rectifier potassium channel 2 (Mus musculus)", "endpoint.value": "inactive"}
{"molecule": "S=C(NCc1ccc(Cl)cc1)NC12CC3CC(CC(C3)C1)C2", "test.target": "Inward rectifier potassium channel 2 (Mus musculus)", "endpoint.value": "inactive"}
{"molecule": "COc1cccc(CN(C)CC(O)COC(c2ccccc2)c2ccccc2C)c1 (stereo not given)", "test.target": "Inward rectifier potassium channel 2 (Mus musculus)", "endpoint.value": "66% (active)"}
{"molecule": "CCn1cc(CN2CCC(C(=O)Nc3cccc(-c4cccc(Cl)c4)c3)CC2)cn1", "test.target": "Inward rectifier potassium channel 2 (Mus musculus)", "endpoint.value": "55% (active)"}
{"molecule": "COc1ccc(NC(=O)/C(Cl)=C(/Cl)S(=O)Cc2ccc(C)cc2)cn1 (stereo not given)", "test.target": "Inward rectifier potassium channel 2 (Mus musculus)", "endpoint.value": "inactive"}

--- query ---
Briefly, Tl flux remaining, % of negative control (hits give low values) measured for C(=C\c1ccccc1)/CSc1nnc(-c2cccnc2)n1Cc1ccco1 : 37% (active)

###

# test.target: Short transient receptor potential channel 4 (Mus musculus)
# test.summary: blockers of DAMGO-evoked TRPC4 calcium flux – cell-based, second round, Fluo4, HEK293 TRPC4beta/mu-opioid, 1 µM, confirmation (AID 2637);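 on inhibition: percent of integrated ratio relative to wells lacking test compound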
# measurement.parameters: at 1 µM; hits give high values
Active and inactive are the calls of the source.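 Rule for the calls: active = calcium signal ratio cut to more than 3 SD under the fully stimulated control mean yet still positive, in both repeats and the primary screen; inactive = the rest.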

{"compound": "CCN(CC)CCN(Cc1cc2cc3c(cc2[nH]c1=O)OCCO3)C(=O)NC1CCCCC1", "test.target": "Short transient receptor potential channel 4 (Mus musculus)", "inhibition": "inactive"}
{"compound": "COc1ccc(C(=O)Nc2nc(-c3cccs3)cs2)cc1", "test.target": "Short transient receptor potential channel 4 (Mus musculus)", "inhibition": "inactive"}
{"compound": "OCCC1CN(Cc2ccccc2-c2ccco2)CCN1Cc1ccccc1 (stereo not drawn)", "test.target": "Short transient receptor potential channel 4 (Mus musculus)", "inhibition": "inactive"}

###

# test.target: Short transient receptor potential channel 6 (Mus musculus) (UniProt Q61143)
# Sequence (Q61143 whole entry, looked up): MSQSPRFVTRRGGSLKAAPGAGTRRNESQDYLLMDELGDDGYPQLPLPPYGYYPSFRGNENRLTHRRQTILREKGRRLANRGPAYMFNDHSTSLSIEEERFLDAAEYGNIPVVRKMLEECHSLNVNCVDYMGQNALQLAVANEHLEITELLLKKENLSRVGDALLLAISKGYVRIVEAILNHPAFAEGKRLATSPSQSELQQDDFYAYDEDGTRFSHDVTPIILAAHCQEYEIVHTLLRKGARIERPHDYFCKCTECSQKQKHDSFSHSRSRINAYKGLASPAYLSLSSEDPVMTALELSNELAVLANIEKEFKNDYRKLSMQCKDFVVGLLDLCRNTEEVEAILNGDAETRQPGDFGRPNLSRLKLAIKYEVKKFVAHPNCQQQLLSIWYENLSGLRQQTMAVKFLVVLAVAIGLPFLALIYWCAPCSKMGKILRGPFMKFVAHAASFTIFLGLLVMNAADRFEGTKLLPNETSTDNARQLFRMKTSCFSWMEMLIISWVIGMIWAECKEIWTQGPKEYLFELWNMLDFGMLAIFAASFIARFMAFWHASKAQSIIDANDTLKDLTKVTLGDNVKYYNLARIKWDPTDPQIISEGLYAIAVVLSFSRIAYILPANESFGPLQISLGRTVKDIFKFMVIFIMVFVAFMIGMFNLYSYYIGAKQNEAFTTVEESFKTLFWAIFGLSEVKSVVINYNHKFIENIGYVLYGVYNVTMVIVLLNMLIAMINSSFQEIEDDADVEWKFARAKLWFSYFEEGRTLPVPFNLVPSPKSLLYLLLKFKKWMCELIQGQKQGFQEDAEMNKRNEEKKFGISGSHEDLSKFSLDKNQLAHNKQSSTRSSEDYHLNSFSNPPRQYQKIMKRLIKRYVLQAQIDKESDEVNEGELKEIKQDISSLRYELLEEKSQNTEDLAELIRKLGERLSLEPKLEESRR
# test.summary: TRPC6 opening by TRPC4 activator hits – cell-based, HEK293, membrane potential dye, duplicate, selectivity assay for TRPC4 activator project, confirmation (AID 434950);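 further: 0% = buffer only wells and 100% = acetylcholine maximal-effect wells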
# measurement.parameters: HEK293 TRPC6, membrane potential fluorescence, at 10 µM; hits give high values
measurement.kind: activation (%)
The response must be a number in % with no trailing unit.

Worked examples, 2 compounds total:
{"compound": "O=C(NCc1ccccc1)C1=C[C@H](c2ccccc2)C[C@H](OCc2ccc(CO)cc2)O1", "unit.spec": "%", "activation": 27}
{"compound": "O=c1oc2ccccc2c(O)c1/C=C1\\C=Nc2ccccc21", "unit.spec": "%", "activation": 32.5}

Next compound, please.
Note to self: activation recorded for O=C(NCCc1cnc[nH]1)c1ccc(-c2ccccc2)cc1 was 59

###

# Test system: TRPC4 beta (transient receptor potential cation channel C4), mouse
# test.summary: TRPC4 cation channel opening, retest – cell-based, Fluo4 calcium, HEK293 TRPC4beta/mu-opioid, duplicates, 10 µM, confirmation (AID 2426)
# measurement.parameters: Fluo4 calcium fluorescence, at 10 µM
Active and inactive are the calls of the source.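 Rule for the calls: active = fluorescence ratio normalized to control raised more than 50% in primary screen plus both repeat runs; inactive = the rest.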
Respond using exactly one of the listed classes: active, inactive

Before answering, review these 5 worked examples.
{"molecule": "COc1ccc(/C=C2\\SC(=S)N(C(Cc3ccccc3)C(=O)O)C2=O)cc1 (stereo not drawn)", "test.target": "TRPC4 beta (transient receptor potential cation channel C4), mouse", "assigned.label": "inactive"}
{"molecule": "O=C(Nc1cccc(C(F)(F)F)c1)c1cccc(NS(=O)(=O)c2ccc(O)c(C(=O)O)c2)c1", "test.target": "TRPC4 beta (transient receptor potential cation channel C4), mouse", "assigned.label": "inactive"}
{"molecule": "CCCOc1cccc(C(=O)NCCNC(=O)c2ccco2)c1", "test.target": "TRPC4 beta (transient receptor potential cation channel C4), mouse", "assigned.label": "inactive"}
{"molecule": "CC1CCCN(CCCN2C(=O)C3C(C(=O)Nc4ccc(Cl)cc4)C4C=CC3(O4)C2C(=O)NC2CCCCC2)C1 (stereo not drawn)", "test.target": "TRPC4 beta (transient receptor potential cation channel C4), mouse", "assigned.label": "inactive"}
{"molecule": "CCN1CCN(c2c(Cl)cccc2NC(=O)c2cccs2)CC1", "test.target": "TRPC4 beta (transient receptor potential cation channel C4), mouse", "assigned.label": "inactive"}

For O=c1c2ccccc2oc2nc(C3CCCCC3)n(Cc3ccco3)c(=O)c12 , which call appears in the assay record?
inactive

Dear all, I need the recorded test outcome for CCOc1cccc(CN2CCCC(C(=O)c3cccc(C(F)(F)F)c3)C2)c1O (stereo not drawn) , thank you.
inactive

Can you look up the reported call for CCCCNC(=O)/C(C#N)=C/c1ccc(F)cc1F for me?
inactive

Status in this test for COc1ccc(C)cc1N(C(=O)c1snc(C(N)=O)c1N)C(C(=O)NC1CCCC1)c1ccc(F)cc1 (stereo not drawn) ?
inactive

What did this assay record as the result for COCC1CCN(Cc2cn(-c3ccccc3F)nc2-c2cc(C)sc2C)CC1 ?
active

// return assay outcome for CC(C)(C)[C@H]1C=C(C(=O)NCc2ccccc2)O[C@@H](OCc2ccc(CO)cc2)C1
active

Please indicate how the test categorized Cc1cc(C)c(C)c(S(=O)(=O)NCc2ccco2)c1C .
inactive

What was the test verdict on CCOc1ccc(NC(=O)c2c[nH]n3c(=O)cc(C4CCN(C(=O)OC(C)(C)C)CC4)nc23)cc1 ?
inactive
